Test system: MDR1-MDCK cell monolayers
Test: MDCK-MDR1 permeability assay (BBB penetration potential)
Assay type: in vitro ADME
Settings: dog, MDCK-MDR1, 120 min, 5 μM, pH 7.4
Label scheme for MDCK-MDR1: % Recov A-B: 1 = under 60%, 2 = from 60% up to 90%, 3 = 90% and over

[
  {
    "compound": "Cn1cc(-c2ccc(-c3ccc(O[C@H]4C[C@@H]5CCC[C@@H](N5)[C@H]4F)nn3)c(O)c2)cn1 (single isomer, unassigned)",
    "cat": 2
  },
  {
    "compound": "N#Cc1ccc(-c2ccc(O[C@H]3C[C@@H]4CCC[C@@H](N4)[C@H]3F)nn2)c(O)c1 (single isomer, unassigned)",
    "cat": 3
  },
  {
    "compound": "Oc1cc2cnccc2cc1-c1ccc(O[C@H]2C[C@@H]3CCC[C@@H](N3)[C@H]2F)nn1 (single isomer, unassigned)",
    "cat": 2
  },
  {
    "compound": "Oc1cc(-c2cn[nH]c2)ccc1-c1ccc(O[C@@H]2C[C@H]3COC[C@H](N3)[C@@H]2F)nn1 (single isomer, unassigned)",
    "cat": 2
  },
  {
    "compound": "Cn1ccc2cc(-c3ccc(O[C@H]4C[C@@H]5CC[C@@H](N5)[C@H]4F)nn3)c(O)cc2c1=O (single isomer, unassigned)",
    "cat": 3
  },
  {
    "compound": "Cn1cc(-c2ccc(-c3ccc(O[C@@H]4C[C@H]5CCC[C@H](N5)[C@@H]4F)nn3)c(O)c2F)cn1 (single isomer, unassigned)",
    "cat": 1
  },
  {
    "compound": "Cn1ccc2cc(-c3ccc(O[C@H]4C[C@]5(C)CC[C@@](C)(N5)[C@H]4F)nn3)c(O)cc2c1=O (single isomer, unassigned)",
    "cat": 2
  },
  {
    "compound": "Oc1cc(-c2ccc3cncn3c2)ccc1-c1ccc(O[C@@H]2C[C@H]3CCC[C@H](N3)[C@@H]2F)nn1 (single isomer, unassigned)",
    "cat": 1
  },
  {
    "compound": "CNC(=O)c1ccc2cc(-c3ccc(O[C@H]4C[C@]5(C)CCC[C@@](C)(N5)[C@H]4F)nn3)c(O)cc2n1 (single isomer, unassigned)",
    "cat": 1
  },
  {
    "compound": "Oc1cc(-c2nncs2)ccc1-c1ccc(O[C@H]2C[C@@H]3CC[C@@H](N3)[C@H]2F)nn1 (single isomer, unassigned)",
    "cat": 3
  }
]
